Data credit: patent US20210388087A1

# Study system: T1, Human CD137 ECD (human)
# T1 construct: also called 4-1BB
# T1 sequence (chain, as listed by the source limits assumed): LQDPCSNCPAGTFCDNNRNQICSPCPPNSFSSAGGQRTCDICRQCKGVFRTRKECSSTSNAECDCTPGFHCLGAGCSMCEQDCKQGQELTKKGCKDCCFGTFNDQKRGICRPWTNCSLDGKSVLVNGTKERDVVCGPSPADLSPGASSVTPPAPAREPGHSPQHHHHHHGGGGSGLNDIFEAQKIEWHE
# Measurement description: single mutant vs template dBBDu183H
Endpoint label: fold change of affinity (fold)
Only the number, expressed in fold, is required.

INPUT: Item under review: H183/L072 VH Q50S (antibody, name in Kabat numbering, V domains shown) VH: QVQLVESGGGLVQPGRSLRLSCAASGFTFSNAWMHWVRQAPGKGLEWVASIKDKGNAYAAYYAPSVKGRFTISRDDSKNSIYLQMNSLKTEDTAVYYCHYVHYASASTVLPAFGVDAWGQGTTVTVSS VL: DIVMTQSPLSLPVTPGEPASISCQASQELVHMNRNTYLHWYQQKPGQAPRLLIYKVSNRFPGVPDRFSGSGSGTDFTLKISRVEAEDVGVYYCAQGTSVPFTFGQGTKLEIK . Reported fold change of affinity?
OUTPUT: 0.8

INPUT: // next record H183/L072 VH Y58D (antibody, name in Kabat numbering, V domains shown) VH: QVQLVESGGGLVQPGRSLRLSCAASGFTFSNAWMHWVRQAPGKGLEWVAQIKDKGNAYAADYAPSVKGRFTISRDDSKNSIYLQMNSLKTEDTAVYYCHYVHYASASTVLPAFGVDAWGQGTTVTVSS VL: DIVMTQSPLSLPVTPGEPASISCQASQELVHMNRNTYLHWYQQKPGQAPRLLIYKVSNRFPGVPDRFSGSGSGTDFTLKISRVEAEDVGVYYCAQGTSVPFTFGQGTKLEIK
OUTPUT: 0.1
